measured_parameter: melting point

Briefly, melting point measured for "C=C(C)c1cc(O)cc2nc(-c3ccc(O)cc3)oc12" : 225 to 228 °C

Briefly, melting point measured for "O=C(O)c1ccc(-c2ccc(Cl)cc2)cc1" : 191 to 192 °C

Briefly, melting point measured for "O=S(=O)(C(=CN=c1ccc(Br)cn1Cc1ccccc1)S(=O)(=O)c1ccccc1)c1ccccc1" : 216 to 217 °C

Briefly, melting point measured for "CCOP(=O)(CCN1CCC(N(CCN)S(=O)(=O)c2ccc(Nc3nccc(Nc4ccc(F)c(F)c4)n3)cc2)CC1)OCC" : 88 to 90 °C

Briefly, melting point measured for "CN(C)CCNS(=O)(=O)c1ccc(O)cc1" : 165 to 168 °C
